- experiment-notes: physchem
- test-parameters: pH 7.4 buffer
experimental-readout: log10 of solubility thermodynamic (log10 of the value in µM)
Note: values are log10 of solubility thermodynamic expressed in µM.

Check out these entries, answers already filled in.
                                   compound  observed_value
0  COc1cc2nccc(Nc3ccc(Oc4ccccc4)cc3)c2cc1OC            0.41
1  COCCNS(=O)(=O)c1ccc(Nc2nccc(-c3c(C)nc(C)n3C)n2)cc1            2.34
2  CCN(C(=O)Cc1ccc(S(C)(=O)=O)cc1)C1CCN(CCC(c2ccccc2)c2ccc(NS(=O)(=O)Cc3ccccc3)cc2)CC1 (stereo not given)            0.36
3   CCn1c(=O)c2[nH]c(-c3ccccc3)nc2n(CC)c1=O            0.32
4  Cc1c(Cc2ccc3ccccc3n2)c2cc(F)ccc2n1CC(=O)O            2.05
5  CS(=O)(=O)c1ccc(N2CCN(C(=O)[C@@H]3CCCC[C@H]3C(=O)NCC#N)CC2)cc1            2.44

Give the measured log10 of solubility thermodynamic for `COc1cc2ncnc(Nc3cccc(Cl)c3F)c2cc1CN(C)CC(N)=O` 1.12

Give the measured log10 of solubility thermodynamic for `COc1cc2c(c(OC)c1OC)-c1ccc(O)cc1[C@@H](NC(C)=O)CC2` 2.91

Give the measured log10 of solubility thermodynamic for `O=C(NCc1ccccc1)c1ccc(=O)oc1` 2.13

Give the measured log10 of solubility thermodynamic for `CCn1cc(NC(=O)Cc2ncc(Oc3ccnc4cc(OC)ccc34)cc2OC)cn1` 1.24

Give the measured log10 of solubility thermodynamic for `CC(C)(C)NC(=O)c1ccc(Oc2cc(F)c(CC(=O)O)cc2Cl)c(NS(=O)(=O)c2ccc(C3CC3)cc2Cl)c1` 2.93

Give the measured log10 of solubility thermodynamic for `CC(C)(C)OC(=O)N1CCN(c2ccc(OCc3ccc(S(C)(=O)=O)cc3)cn2)CC1` 0.00

Give the measured log10 of solubility thermodynamic for `c1ccc(-c2nc[nH]c2-c2ccccc2)cc1` 1.36
